protocol.text: qHTS assay for identifying genotoxic compounds that show differential cytotoxicity against isogenic chicken DT40 cell lines with known DNA damage response pathways - Rad54/Ku70 mutant cell line (AID 743015); further: nearly all actives have a fitted effect of over 60% in size
cond: DT40 Rad54/Ku70 mutant viability, CellTiter-Glo, 40 h; series mostly up to 66.8 µM
Inconclusive results are not listed. Calls of active or inactive are those of the source. The call rests on the fitted dose curve; in most records, active means well fitted cell-killing curve with a large enough effect in the repeat runs; inconclusive means weak or mixed curves; inactive means no such curve, though single readings can be large or run the other way.
Outcome codes: active, inactive

{"compound": "CCCCC(CC)CN1CN(CC(CC)CCCC)CC(C)(N)C1 (stereo unspecified)", "qualitative.label": "active"}
{"compound": "O=C1OC2(c3ccc(O)cc3Oc3cc(O)ccc32)c2ccc(N=C=S)cc21", "qualitative.label": "inactive"}
{"compound": "COC1=C(OC)C(=O)C(CCCCCCCCCCO)=C(C)C1=O", "qualitative.label": "active"}
{"compound": "Clc1sc(Cl)c(Cl)c1Cl", "qualitative.label": "inactive"}
{"compound": "O=C(O)CN(CCN(CC(=O)O)CC(=O)O)CC(=O)O", "qualitative.label": "inactive"}
{"compound": "OCCN1CCN(CCCN2c3ccccc3Sc3ccc(C(F)(F)F)cc32)CC1", "qualitative.label": "active"}
{"compound": "CC(=O)OCC=C(C)C", "qualitative.label": "inactive"}
{"compound": "CCCCOC(=O)CO", "qualitative.label": "inactive"}
{"compound": "[Cl][Pt-2]([Cl])([Cl])[Cl]", "qualitative.label": "inactive"}
{"compound": "CCC(CC)C(C)CCOC(C)=O (stereo unspecified)", "qualitative.label": "inactive"}
{"compound": "CC(C)(C)c1ccc(C(O)CCCN2CCC(C(O)(c3ccccc3)c3ccccc3)CC2)cc1 (stereo unspecified)", "qualitative.label": "active"}
{"compound": "Cc1cc(C(C)(C)C)c(O)c(C)c1Cn1c(=O)n(Cc2c(C)cc(C(C)(C)C)c(O)c2C)c(=O)n(Cc2c(C)cc(C(C)(C)C)c(O)c2C)c1=O", "qualitative.label": "inactive"}
{"compound": "CN1CCCCC1CCN1c2ccccc2Sc2ccc(S(C)=O)cc21 (stereo unspecified)", "qualitative.label": "active"}
{"compound": "CCCCCCC1CCCC(=O)O1 (stereo unspecified)", "qualitative.label": "inactive"}
{"compound": "CN(C)Cc1ccccc1O", "qualitative.label": "inactive"}
{"compound": "C/C=C/C=C/COC(=O)C(C)C", "qualitative.label": "active"}
{"compound": "O=C(/C=C/c1ccc(O)c(O)c1)O[C@@H](C(=O)O)[C@@H](OC(=O)/C=C/c1ccc(O)c(O)c1)C(=O)O", "qualitative.label": "inactive"}
{"compound": "O=c1[nH]c2ccccc2n1CCCN1CCN(C(c2ccccc2)c2ccccc2)CC1", "qualitative.label": "active"}
{"compound": "COc1cc(/C=C/c2ccccc2)oc(=O)c1", "qualitative.label": "inactive"}
{"compound": "c1cnccn1", "qualitative.label": "inactive"}
{"compound": "Cc1ccc(C(=O)O)cc1", "qualitative.label": "inactive"}
{"compound": "CCCCCc1ccc(Cl)cc1", "qualitative.label": "inactive"}
{"compound": "C#C[C@]1(OC(C)=O)CC[C@H]2[C@@H]3CCC4=C/C(=N/O)CC[C@@H]4[C@H]3CC[C@@]21CC", "qualitative.label": "active"}
{"compound": "CC(C)CCOC(=O)/C=C/c1ccccc1", "qualitative.label": "inactive"}
{"compound": "c1ccc(C(O[C@@H]2CCCN(CCc3ccc4c(c3)OCO4)C2)c2ccccc2)cc1", "qualitative.label": "active"}
{"compound": "CCCCCCCC/C=C\\CCCCCCCCN", "qualitative.label": "inactive"}
